- Assay comment: soluble on expression in E. coli; label from the status in PepcDB or PDB records
Readout: soluble on expression in E. coli

Chain sequence | Reported result
MKYVFIENHRAEFSIKAMCRVLRVARSGWYVWLRRRHQMSLRQQFRLTCDAAVHKAFFEAKQRYGAPRLADELPEFNIKTIAASLRRQGLRAKASRKFSPVSYRAHGLPVLENLLEQDFSASGPKPEVGG | not soluble
MGFDLDVEKKKENRNIPQANNLKIKVIGVGGAGNNAINRMIEIGIHGVEFVAVNTDLQVLEASNADVKIQIGENITRGLGAGGRPEIGEQAALESEEKIREVLQDTHMVFITAGFGGGTGTGASPVIAKIAKEMGILTVAIVTTPFYFEGPERLKKAIEGLKKLRKHVDTLIKISNNKLMEELPRDVKIKDAFLKADETLHQGVKGISELITKRGYIRLTSRFARIESVMKDAGAAILGIGVGKGEHRAREAAKKAMESKLIEHPVENASSIVFNITAPSNIRMEEVHEAAMIIRQNSSEDADVKFGLIFDDEVPDDEIRVIFIATRFPDEDKILFPEGDIPAIYRYGLEGLL | soluble
MKIIITGEPGVGKTTLVKKIVERLGKRAIGFWTEEVRDPETKKRTGFRIITTEGKKKIFSSKFFTSKKLVGSYGVNVQYFEELAIPILERAYREAKKDRRKVIIIDEIGKMELFSKKFRDLVRQIMHDPNVNVVATIPIRDVHPLVKEIRRLPGAVLIELTPENRDVILEDILSLLER | soluble
MGSDKIHHHHHHADTTDNTTTSSSTSANSGSTVQTKALSKAYVVYGAGLASEDKDTVASALGVKSNYTALTATGSDYATYLNAAGTTDASMISSVTLAPADPGTGVKVNIAKYNGSNNITEVTSQQYAMVATMAGVKDVIITVTADKSVSGESALTGVYKALAADGLTLNSQNTQAANGVLDATQPAIDSNSSDKKYPGKLMSAVGSVSSDLAKQRQNGNELATKADIEEMLQKALAKQGIANQTSSTQITNIAIALSQVQKAPVSTSKTYIKNVTNVADSLANSIGDKMASVKDFANSADAKQAENFIVQIWHNVVNFFKGLIGG | not soluble
WVPHELTENQKNRRFEVSSSLILRNHNEPFLDRIVTCDEKWILYDNRRRSAQWLDQEEAPKHFPKPILHPKKVMVTIWWSAAGLIHYSFLNPGETITSEKYAQEIDEMNQKLQRLQLALVNRKGPILLHDNARPHVAQPTLQKLNELGYEVLPHPPYSPDLLPTNYHVFKHLNNFLQGKRFHNQQDAENAFQEFVESQSTDFYATGINQLISRWQKCVDCNGSYFD | soluble
MTTMRTGSQIFMRSGQWNELWKEKNVPLRFTNPNISFDGSERTKAEIEVVDSQEKSLVTRNMQIIPWQHDIANLHLPERDSLILMPCATRTVGRRLTARNIGLADTRGNCDISWPGVMIKIYGQQAVTSARSHQKTAVLFSVRRAQVAAMILTYPWLLSEPVRVIARYSGVSVGTVSNALKIFQKAGYLAETMDGHRLVNAELFLSAWARAYPTGLGADLELLRGKAQQLPPYNLEHLGVKASESAVSDHISDGQSASLYLGEETFSPKVIKELRLVKNPAGTITLRRAFWNTIDVKEIPEAIVYADLLNSDDARLWDVAQIIKAIILKRARGDWLGDQDG | not soluble
VRAPVTKVHGGAGSAQRMPLCDKCGSGIVGAVVKARDKYRHPECFVCADCNLNLKQKGYFFVEGELYCETHARART | soluble
MGGGHFAASNALKTAFLQKDPQAKVEIVDTLKIISPILDKLAVGTYLKAIKTVPFIYGLVYDSTDKDPPTRFSKAIYEKFYFAFYKLYNIISELNPDVIIGTHPSPIDMVSQLKKRGNINVPIISIVTDFTIHPYWINEYADYIIVHHENLVYEAVKKGAPGKKVIPLGIPLEHHHHHH | not soluble
MELRIGFGFDSHEFVEGKLLILGGVEIEKDYGLKGHSDGDALLHAITDAILGALGERDIGEIFKDTDPRWKNAPSRIFLEKALEVMSEKGFNISNIDCVIVADRPKIAPHKERIKESLSKLLGIPKERISLKGKRREGFCEGNGLVCMCTVLLVKMLEHHHHHH | soluble
MGSDKIHHHHHHMAERLGISIRSIYRDIDSLRAQGVRIDASAGLGFQLKEDILLPPVTFNENEAEALFLALEWLKDVPDQAMKSAAVSIYSKLYAVLPEHRKYLIDDMTLGVTHYWHPVDEALVEQVRLAIRKQVKIKVDYCDEHKRISQRSLWPFALGYLHDKVVLAAWCELRQAFRHFRIDRIHDLQMSEEIYPEFKKHLFQRWWKQEMQRTTDKN | not soluble
MGHHHHHHSHMLAQPEPLVWVSKWVDYSNKFGFGYQLSSRRVAVLFNDGTHMALSANRKTVHYNPTSTKHFSFSVGAVPRALQPQLGILRYFASYMEQHLMKGGDLPSVEEVEVPAPPLLLQWVKTDQALLMLFSDGTVQVNFYGDHTKLILSGWEPLLVTFVARNRSACTYLASHLRQLGCSPDLRQRLRYALRLLRDRSPA | not soluble
MSLAPPVRSLHIGTVAGFTADPQHLDRIAIHLPALNLPDSLIFARLSKPWASHASGFCFYPEPGDEVVVGFIDSDPRYPMILGALHNPKNTAPFPPDEKNNRKGLIVSQADQTQALMIDTEEKTLRLMAGDNTLTLTGEGNLTMSTPNALQLQADTLGLQADSNLSIAGKQQVEITSAKINMKEGHHHHHH | soluble
MGSDKIHHHHHHMGKGTNPTIGIALGSGAAKGWAHIGVLNGLAAMGIKPDKVAGCSVGALVGAAYAHNHLAELEEWVRSFSSWDVLGLMDIRWRKGGLIGGEKVFDVLQSRIGDVNIEDLEYPFAAIATDLYSGQEIWFRHGDLRQAVRASCSMPGILAPVRQGERWLVDGAVVNPVPVSVSRAMGVDIVIAVDLHGFHSGRLQVLPVNMTSHRATKEDTEMPARQETGFMDLFARGREYVSNLTDKFSLGTKSNPGMIAVMSQSMGILEQRHKRARLMGDPPDICIVPEVANIGTMEFHRADEAIAAGEAAVAKVAHLIEAAIWKD | not soluble
